Test system: ATP;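 further: ATP exposure 15 min at 22 °C before imaging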
TEST_SUMMARY: switch fluorescence ratio, 500 uM ATP over buffer (Cy3 cluster intensity, sum of 5 cycles each) (fold (ratio)); higher = stronger signal-on switching upon ATP binding; sequences stand for … in TCGTCGGCAGCGTCAGATGTGTATAAGAGACAGTTTTTTTTTTTTTTTTTTTTTTTTT…TC
RECORDED_CONDITIONS: aptamer strand: ATP DNA aptamer (quencher-CACCTGGGGGAGTATTGCGGAGGAAGG + anchor), 100 nM annealed; ATP concentration: 500 uM
QUANTITY: switch fluorescence ratio
Simply state the number, no unit and no words.

// recorded switch fluorescence ratio for ATTTGGGGGA : 0.999

The reported value for TGAAGCATTT in terms of switch fluorescence ratio is 1.17

Quick note, switch fluorescence ratio for ATCACGGGCT landed at 0.967

Measured switch fluorescence ratio, TTTTTAGCCA : 1.05

In plain terms, ATGGGGGGCC has a documented switch fluorescence ratio of 0.995

Input GGGAAATTCG . Output switch fluorescence ratio: 1.01

Looking up AGTTATGTAG , I found its switch fluorescence ratio recorded as 1.01

Given item TAAACCGTGG , the value recorded as its switch fluorescence ratio is 1.02

The reported value for TGGATACTTA in terms of switch fluorescence ratio is 1.02

Lookup result for ATAATGGCTT ; measured switch fluorescence ratio: 0.988

Record GATTGGTGCG , field switch fluorescence ratio: 0.976

Entry TTTTTACTAT ; switch fluorescence ratio = 1

Noted for TGACTGTGTG : its switch fluorescence ratio reads 0.984

GET /value?item= TATACACATT &field=switch fluorescence ratio returns 1.02

Lab note: measured switch fluorescence ratio of CGGTATGATC was 1.02

The recorded switch fluorescence ratio for entry GGAAGTCCGG equals 1.03

Lookup result for TTTGACTAAG ; measured switch fluorescence ratio: 1.06

Input GGTTATTGGT . Output switch fluorescence ratio: 1.02

switch fluorescence ratio recorded for this sequence, TAATAGGTTT , is 1.1

switch fluorescence ratio in this record for GTAGCTGCGG : 1.02

Quick note, switch fluorescence ratio for TTGTGCAAAT landed at 1.01

For record ATTATGGTTT the listed switch fluorescence ratio is 1

get_value(item= TTTCTTTCTT , readout=switch fluorescence ratio) returns 1.05

So, CGGAAAAGGG ? Its switch fluorescence ratio was 0.993

# switch fluorescence ratio of TTGTAGGACC = 1

Sample TCCTGGATGG ; switch fluorescence ratio observed: 0.98

According to the records, this sequence CGGTCTAGGG displays switch fluorescence ratio of 0.995

Kindly note the recorded switch fluorescence ratio for GGAATCTGGG , which is 0.983

Recorded switch fluorescence ratio (sequence GGCAGATTCC ): 1.05

Entry ACCCCTGGGC , switch fluorescence ratio reported as 1.16

Briefly, switch fluorescence ratio measured for GGGACCGTAT : 1

# switch fluorescence ratio of AGAATTCAAC = 1

The sequence TACCCGGTTT showed switch fluorescence ratio equal to 0.999

Form: sequence = TCTGGTACAG ; switch fluorescence ratio = 0.969

Measured switch fluorescence ratio, TGGTCCGGGA : 1.03

// switch fluorescence ratio lookup, sequence = TCAGTTTATG , result: 0.961

# switch fluorescence ratio (sequence: CCGGATGGTG ) is 1.02

GET /value?item= TCACGGGGGT &field=switch fluorescence ratio returns 1.17

So for AAGTCTTAAG , the logged switch fluorescence ratio turned out to be 1.04

// switch fluorescence ratio value for TTAGAAGGGG : 0.993

switch fluorescence ratio measured on TTTATTTGAA = 1.01

// recorded switch fluorescence ratio for TAGTCTCTTG : 1

Value of measured switch fluorescence ratio for the entry CGGTAAATGT : 1.05
